Value source: paper PMC4774911

Property: IC50; scope: individual compounds
- assayTarget: PKG (Plasmodium falciparum, UniProt Q8I719)
- Sequence (Q8I719 whole entry): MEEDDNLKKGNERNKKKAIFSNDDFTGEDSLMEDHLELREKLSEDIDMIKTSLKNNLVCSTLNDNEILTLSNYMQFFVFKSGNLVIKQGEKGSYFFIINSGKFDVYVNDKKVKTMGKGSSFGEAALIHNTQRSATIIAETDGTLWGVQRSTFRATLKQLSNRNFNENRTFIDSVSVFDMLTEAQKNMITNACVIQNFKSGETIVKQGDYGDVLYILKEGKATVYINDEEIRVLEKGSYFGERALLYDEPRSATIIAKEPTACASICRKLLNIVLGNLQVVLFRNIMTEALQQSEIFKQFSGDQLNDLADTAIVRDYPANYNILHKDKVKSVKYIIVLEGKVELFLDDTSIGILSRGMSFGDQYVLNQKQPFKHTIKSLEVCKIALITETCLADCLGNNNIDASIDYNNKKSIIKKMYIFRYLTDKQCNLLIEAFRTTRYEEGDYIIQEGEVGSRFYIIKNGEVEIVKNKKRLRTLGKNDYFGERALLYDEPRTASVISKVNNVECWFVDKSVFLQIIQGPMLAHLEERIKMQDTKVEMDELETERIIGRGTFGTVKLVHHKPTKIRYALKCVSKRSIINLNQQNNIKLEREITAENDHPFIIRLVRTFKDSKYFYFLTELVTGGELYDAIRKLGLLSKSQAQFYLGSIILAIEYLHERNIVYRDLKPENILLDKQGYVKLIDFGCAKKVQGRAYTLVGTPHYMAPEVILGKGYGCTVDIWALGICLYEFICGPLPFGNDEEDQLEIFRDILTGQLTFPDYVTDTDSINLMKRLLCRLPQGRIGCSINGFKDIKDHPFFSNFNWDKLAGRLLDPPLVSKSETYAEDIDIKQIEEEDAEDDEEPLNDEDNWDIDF
- protocolSummary: PKG IC50 (supplementary data file of hits)
- Type: biochemical

Before answering, review these 7 worked examples.
compound	IC50
CCS(=O)(=O)c1ccc(OC)c(Nc2nccc(-c3c(-c4cccc(NC(=O)c5c(F)cccc5F)c4)nn4ncccc34)n2)c1	> 10 µM
O=C(Nc1ccccc1)Nc1cccc(-c2nn3c(OCCN4CCCC4)cccc3c2-c2ccncc2)c1	> 10 µM
O=C(NCC(c1ccc(C(F)(F)F)cc1)N1CCCC1)c1cc(-c2ccncc2)c(-c2cccc(O)c2)o1.O=C(O)C(F)(F)F (centres unmarked)	7.64 µM
CC(C)(C)CNCC(C)(C)c1nc(-c2ccc(Cl)c(O)c2)c(-c2ccncc2)[nH]1.Cl	> 10 µM
CS(=O)(=O)Cc1ccc(Nc2nccc(-c3c(-c4cccc(NC(=O)C5CCCCC5)c4)nn4ncccc34)n2)cc1	> 10 µM
CS(=O)(=O)Cc1ccc(Nc2nccc(-c3c(-c4cccc(C(=O)Nc5c(F)cccc5F)c4)nn4ccccc34)n2)cc1	> 10 µM
O=C(Nc1cccc(-c2nn3ncccc3c2-c2ccnc(Nc3cccc(-c4cnco4)c3)n2)c1)c1c(F)cccc1F	> 10 µM

input: Annotate the compound O=C(Nc1cccc(-c2nn3ccccc3c2-c2ccnc(Nc3cccc(-c4cnco4)c3)n2)c1)C1CCCCC1 with its measured IC50.
output: > 10 µM

----------
- assayTarget: IKBKE (Homo sapiens, UniProt Q14164)
- Sequence (Q14164 1-716): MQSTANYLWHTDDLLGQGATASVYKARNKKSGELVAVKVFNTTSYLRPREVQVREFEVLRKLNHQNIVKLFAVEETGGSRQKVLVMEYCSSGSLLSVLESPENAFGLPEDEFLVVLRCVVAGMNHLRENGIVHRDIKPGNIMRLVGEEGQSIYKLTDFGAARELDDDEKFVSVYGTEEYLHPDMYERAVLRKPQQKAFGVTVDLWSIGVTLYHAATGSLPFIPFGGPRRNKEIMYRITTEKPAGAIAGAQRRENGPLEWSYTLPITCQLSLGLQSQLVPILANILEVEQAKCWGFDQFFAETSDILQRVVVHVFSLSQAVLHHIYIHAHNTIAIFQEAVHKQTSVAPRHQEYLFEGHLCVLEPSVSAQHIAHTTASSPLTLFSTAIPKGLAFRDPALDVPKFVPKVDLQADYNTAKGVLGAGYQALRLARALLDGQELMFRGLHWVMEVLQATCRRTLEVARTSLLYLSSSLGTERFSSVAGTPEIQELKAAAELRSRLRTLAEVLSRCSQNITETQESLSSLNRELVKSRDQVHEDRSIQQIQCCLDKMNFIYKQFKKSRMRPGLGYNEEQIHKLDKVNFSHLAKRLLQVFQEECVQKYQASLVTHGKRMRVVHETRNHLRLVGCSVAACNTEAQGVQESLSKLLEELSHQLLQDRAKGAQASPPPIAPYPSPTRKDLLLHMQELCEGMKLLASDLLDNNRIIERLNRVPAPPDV
- protocolSummary: biochemical
- condition: read-out: KDapp
attributeMeasured: pKd
Please treat pKd as minus the base-10 logarithm of the molar concentration.

input: Annotate the compound CN1CCN(c2ccc(Nc3ncc(C#N)c(Nc4ccccc4C(N)=O)n3)cc2)CC1.Cl with its measured pKd.
output: 6.02

----------
- assayTarget: PRKDC (Homo sapiens)
pIC50: −log10 of the molar value.
Property: pIC50; scope: individual compounds

compound	measured
CN(C)CC(O)COc1ccc(Nc2ncc([N+](=O)[O-])c(Nc3ccccc3O)n2)cc1.O=C(O)C(F)(F)F (centres unmarked)	< 4.70

As a next step, examine the compound that follows.
input: Annotate the compound Cl.NCC1(c2nc(-c3ccc(Cl)c(O)c3)c(-c3ccncc3)[nH]2)CCCCC1 with its measured pIC50.
output: < 4.70

----------
- assayTarget: KIT (Homo sapiens)
- Sequence (P10721 whole entry): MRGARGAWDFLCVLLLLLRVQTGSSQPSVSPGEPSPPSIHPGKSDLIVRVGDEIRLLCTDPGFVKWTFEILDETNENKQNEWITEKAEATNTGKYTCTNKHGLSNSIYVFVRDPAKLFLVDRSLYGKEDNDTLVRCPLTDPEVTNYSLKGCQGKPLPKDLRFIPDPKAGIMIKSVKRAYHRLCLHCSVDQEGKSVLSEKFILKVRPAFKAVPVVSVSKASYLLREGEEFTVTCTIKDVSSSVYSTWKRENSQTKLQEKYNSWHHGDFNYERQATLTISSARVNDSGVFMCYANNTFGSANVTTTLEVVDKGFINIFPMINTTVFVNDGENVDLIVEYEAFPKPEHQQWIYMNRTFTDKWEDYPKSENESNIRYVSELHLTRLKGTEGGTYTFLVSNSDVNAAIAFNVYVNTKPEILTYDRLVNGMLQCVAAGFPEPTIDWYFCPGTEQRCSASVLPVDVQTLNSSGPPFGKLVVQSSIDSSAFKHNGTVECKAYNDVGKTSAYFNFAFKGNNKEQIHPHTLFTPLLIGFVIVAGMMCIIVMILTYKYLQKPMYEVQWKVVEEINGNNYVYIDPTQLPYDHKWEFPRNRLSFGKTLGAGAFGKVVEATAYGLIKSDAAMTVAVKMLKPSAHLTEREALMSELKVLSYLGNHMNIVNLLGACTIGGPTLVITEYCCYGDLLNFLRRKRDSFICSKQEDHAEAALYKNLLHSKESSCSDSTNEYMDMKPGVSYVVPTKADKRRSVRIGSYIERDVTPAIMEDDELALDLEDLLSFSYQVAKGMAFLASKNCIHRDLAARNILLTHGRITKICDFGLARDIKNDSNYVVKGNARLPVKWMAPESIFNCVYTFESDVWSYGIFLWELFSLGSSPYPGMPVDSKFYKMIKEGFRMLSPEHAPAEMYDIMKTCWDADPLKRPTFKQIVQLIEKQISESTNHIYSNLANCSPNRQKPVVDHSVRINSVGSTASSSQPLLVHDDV
attributeMeasured: IC50 (nM)
# output: bare number, implied unit nM

input: Give KIT (Homo sapiens) IC50 for the following compound: CN1CCN(c2ccc(Nc3ncc(C#N)c(Nc4ccccc4C(N)=O)n3)cc2)CC1.Cl [TCMDC-134116]
output: 1300

----------
- assayTarget: ABL2 (Homo sapiens, UniProt P42684)
- Sequence (P42684 whole entry): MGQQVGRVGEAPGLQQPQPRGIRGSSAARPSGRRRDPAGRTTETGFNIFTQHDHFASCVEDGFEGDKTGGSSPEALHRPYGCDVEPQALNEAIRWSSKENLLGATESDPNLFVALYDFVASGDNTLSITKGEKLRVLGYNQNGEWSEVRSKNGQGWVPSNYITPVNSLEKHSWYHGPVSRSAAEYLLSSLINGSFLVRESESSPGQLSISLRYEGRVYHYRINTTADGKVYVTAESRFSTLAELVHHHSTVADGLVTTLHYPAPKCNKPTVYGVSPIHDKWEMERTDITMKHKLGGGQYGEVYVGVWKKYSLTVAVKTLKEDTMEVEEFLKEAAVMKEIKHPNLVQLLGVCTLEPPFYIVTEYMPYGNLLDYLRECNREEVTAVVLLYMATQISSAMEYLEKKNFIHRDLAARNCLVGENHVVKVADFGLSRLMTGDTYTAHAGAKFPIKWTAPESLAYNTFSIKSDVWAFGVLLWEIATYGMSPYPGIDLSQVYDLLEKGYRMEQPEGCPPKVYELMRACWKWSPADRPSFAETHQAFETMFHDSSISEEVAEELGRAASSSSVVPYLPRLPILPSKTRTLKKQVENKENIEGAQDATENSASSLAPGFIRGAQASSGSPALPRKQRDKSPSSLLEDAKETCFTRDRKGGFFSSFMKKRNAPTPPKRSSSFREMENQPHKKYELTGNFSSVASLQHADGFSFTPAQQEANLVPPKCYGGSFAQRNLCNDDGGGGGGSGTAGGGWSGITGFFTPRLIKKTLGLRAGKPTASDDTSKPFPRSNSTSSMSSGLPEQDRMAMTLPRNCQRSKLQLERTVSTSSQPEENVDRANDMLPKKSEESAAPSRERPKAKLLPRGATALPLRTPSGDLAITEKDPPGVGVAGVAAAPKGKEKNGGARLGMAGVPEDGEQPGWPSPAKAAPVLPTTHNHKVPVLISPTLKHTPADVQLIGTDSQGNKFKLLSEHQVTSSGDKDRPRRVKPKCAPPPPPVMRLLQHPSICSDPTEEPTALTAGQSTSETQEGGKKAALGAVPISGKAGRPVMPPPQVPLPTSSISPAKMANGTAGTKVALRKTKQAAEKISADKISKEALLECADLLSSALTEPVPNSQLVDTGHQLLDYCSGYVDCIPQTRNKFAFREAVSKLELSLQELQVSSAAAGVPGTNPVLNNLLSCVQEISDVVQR
attributeMeasured: IC50 (µM)
# output: bare number, implied unit µM

input: Annotate the compound CN(C)CC(O)COc1ccc(Nc2ncc([N+](=O)[O-])c(Nc3ccccc3O)n2)cc1.O=C(O)C(F)(F)F (stereo not shown) with its measured IC50.
output: 4.2

----------
- assayTarget: Plasmodium falciparum calcium-dependent protein kinase 1 (CDPK1) (Plasmodium falciparum, UniProt P62344)
- Construct: 6-Histidine (N); made in house
- Sequence (P62344 whole entry): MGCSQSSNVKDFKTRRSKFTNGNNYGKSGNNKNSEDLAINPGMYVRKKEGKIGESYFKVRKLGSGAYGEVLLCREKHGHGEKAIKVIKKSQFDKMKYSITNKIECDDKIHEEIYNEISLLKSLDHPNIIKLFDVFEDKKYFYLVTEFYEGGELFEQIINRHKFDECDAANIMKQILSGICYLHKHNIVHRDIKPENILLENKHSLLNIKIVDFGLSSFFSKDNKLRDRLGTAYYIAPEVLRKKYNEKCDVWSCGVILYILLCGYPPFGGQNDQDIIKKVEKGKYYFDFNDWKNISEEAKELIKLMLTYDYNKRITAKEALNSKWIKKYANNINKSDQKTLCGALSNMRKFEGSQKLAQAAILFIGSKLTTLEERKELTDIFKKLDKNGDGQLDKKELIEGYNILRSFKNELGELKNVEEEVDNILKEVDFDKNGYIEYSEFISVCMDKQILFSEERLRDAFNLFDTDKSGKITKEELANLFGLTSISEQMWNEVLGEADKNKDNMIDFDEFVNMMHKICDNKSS
- protocolSummary: CDPK1 Kinase-Glo ATP-consumption screen and dose-response
- Type: biochemical
- condition: hits below 1 uM; read-out: CDPK1 IC50
- Protocol: Biochemical assays were performed in white 384-well plates (Nunc). Liquid transfers were done manually with 8-channel pipets. Compounds were initially tested in a single-point screen (final concentration 1 μM). […] The catalytic activity of each kinase was considered proportional to ATP consumed, as determined from measurements of residual [ATP] with the luciferase-based reagent Kinase-Glo (Promega) following incubation. […]
Property: log10(IC50); scope: individual compounds
All values: log10 IC50 [nM].

Before answering, review these 3 worked examples.
smilesStr	measured
CN1CCN(c2ccc(Nc3ncc(C#N)c(Nc4ccccc4C(N)=O)n3)cc2)CC1.Cl	1.08
CCn1c(-c2nonc2N)nc2c(-c3cccc(NC(=O)Nc4ccccc4Cl)c3)ncc(OCCCN)c21.O=C(O)C(F)(F)F	1.86
COc1cc(-c2nc(C(C)(C)CN)[nH]c2-c2ccncc2)ccc1Br.Cl	2.20

input: Annotate the compound O=C(O)C(F)(F)F.O=c1[nH]ccc2nc(N[C@@H]3CCNC3)nc(Nc3ccc4c(c3)S(=O)(=O)CC4)c12 with its measured log10(IC50).
output: 2.37

----------
- assayTarget: SIK2 (Homo sapiens, UniProt Q9H0K1)
- protocolSummary: biochemical
- condition: read-out: KDapp
attributeMeasured: Kd (µM)
# output: bare number, implied unit µM

input: Annotate the compound CN1CCN(c2ccc(Nc3ncc(C#N)c(Nc4ccccc4C(N)=O)n3)cc2)CC1.Cl with its measured Kd.
output: 0.0106

----------
- assayTarget: LYN (Homo sapiens, UniProt P07948)
- Sequence (P07948 whole entry): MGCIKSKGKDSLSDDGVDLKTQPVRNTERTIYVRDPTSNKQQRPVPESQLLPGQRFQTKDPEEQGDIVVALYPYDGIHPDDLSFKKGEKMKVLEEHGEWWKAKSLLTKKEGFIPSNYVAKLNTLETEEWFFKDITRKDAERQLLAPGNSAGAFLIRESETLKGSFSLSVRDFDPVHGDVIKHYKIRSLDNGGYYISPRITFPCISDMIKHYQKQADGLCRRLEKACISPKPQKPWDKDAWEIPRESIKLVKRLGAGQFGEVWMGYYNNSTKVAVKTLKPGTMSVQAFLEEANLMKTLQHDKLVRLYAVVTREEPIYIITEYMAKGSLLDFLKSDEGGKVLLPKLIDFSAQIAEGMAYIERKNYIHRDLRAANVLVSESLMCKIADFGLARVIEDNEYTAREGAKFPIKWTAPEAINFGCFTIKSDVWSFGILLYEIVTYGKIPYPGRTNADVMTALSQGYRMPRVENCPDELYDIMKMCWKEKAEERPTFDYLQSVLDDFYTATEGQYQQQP
- protocolSummary: biochemical
- condition: read-out: KDapp
attributeMeasured: Kd (µM)
# output: bare number, implied unit µM

input: Annotate the molecule Cl.NCC1(c2nc(-c3ccc(Cl)c(O)c3)c(-c3ccncc3)[nH]2)CCCCC1 with its measured Kd.
output: 0.621

----------
- assayTarget: CSNK1D (Homo sapiens, UniProt P48730)
- Sequence (P48730 whole entry): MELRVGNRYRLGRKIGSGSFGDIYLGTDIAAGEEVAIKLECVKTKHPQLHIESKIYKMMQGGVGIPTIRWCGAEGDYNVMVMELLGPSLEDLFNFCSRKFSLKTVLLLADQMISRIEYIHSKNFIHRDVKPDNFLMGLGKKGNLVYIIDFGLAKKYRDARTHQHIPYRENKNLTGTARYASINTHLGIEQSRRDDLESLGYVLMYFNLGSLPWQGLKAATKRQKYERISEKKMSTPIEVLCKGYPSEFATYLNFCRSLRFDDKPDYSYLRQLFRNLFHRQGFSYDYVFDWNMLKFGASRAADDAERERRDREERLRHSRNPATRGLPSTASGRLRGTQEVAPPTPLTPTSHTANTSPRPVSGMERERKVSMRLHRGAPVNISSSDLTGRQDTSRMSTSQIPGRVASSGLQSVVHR
attributeMeasured: pIC50
Please treat pIC50 as minus the base-10 logarithm of the molar concentration.

input: Give CSNK1D (Homo sapiens, UniProt P48730) pIC50 for the following molecule: CN1CCN(c2ccc(Nc3ncc(C#N)c(Nc4ccccc4C(N)=O)n3)cc2)CC1.Cl
output: 5.74

----------
- assayTarget: UniProt Q8I719
- protocolSummary: PKG IC50 (supplementary data file of hits)
- Format: biochemical
attributeMeasured: IC50 (nM)
# output: bare number, implied unit nM

Before answering, review these 3 worked examples.
smilesStr	assayTarget	IC50 / nM
CC(C)(CN)c1nc(-c2ccc(Br)c(O)c2)c(-c2ccncc2)[nH]1.Cl	UniProt Q8I719	242
CC(C)(CN)c1cc(-c2ccc(Cl)c(O)c2)c(-c2ccncc2)o1.Cl	UniProt Q8I719	42
CCn1c(-c2nonc2N)nc2c(-c3cccc(NC(=O)Nc4ccccc4OC)c3)ncc(OCCCN)c21.O=C(O)C(F)(F)F	UniProt Q8I719	783

As a next step, examine the molecule that follows.
input: Annotate the molecule CCN(CC)CCCOc1ccc(Nc2nccc(-c3c(-c4cccc(NC(=O)c5c(F)cccc5F)c4)nn4ccccc34)n2)cc1F with its measured IC50.
output: 131

----------
- assayTarget: IRAK1 (Homo sapiens, UniProt P51617)
attributeMeasured: IC50

input: Give IRAK1 (Homo sapiens, UniProt P51617) IC50 for the following compound: Cl.NCC1(c2nc(-c3ccc(Cl)c(O)c3)c(-c3ccncc3)[nH]2)CCCCC1 [TCMDC-141154]
output: > 20 µM

----------
Property: pIC50; scope: individual molecules
- assayTarget: UniProtKB P46734
- Sequence (P46734 1-347): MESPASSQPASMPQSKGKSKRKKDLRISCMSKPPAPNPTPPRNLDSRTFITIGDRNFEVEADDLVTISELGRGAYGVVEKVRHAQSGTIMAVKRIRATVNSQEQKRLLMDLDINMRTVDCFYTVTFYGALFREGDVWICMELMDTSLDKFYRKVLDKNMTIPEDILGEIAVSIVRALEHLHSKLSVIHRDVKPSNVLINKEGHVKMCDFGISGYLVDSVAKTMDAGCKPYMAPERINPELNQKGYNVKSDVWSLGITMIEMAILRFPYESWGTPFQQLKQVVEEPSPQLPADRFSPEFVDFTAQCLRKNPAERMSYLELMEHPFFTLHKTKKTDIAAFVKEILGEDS
pIC50: −log10 of the molar value.

molecule	pIC50
CN(C)CC(O)COc1ccc(Nc2ncc([N+](=O)[O-])c(Nc3ccccc3O)n2)cc1.O=C(O)C(F)(F)F (centres unmarked)	< 4.70

As a next step, examine the molecule that follows.
input: Annotate the molecule Cl.NCC1(c2nc(-c3ccc(Cl)c(O)c3)c(-c3ccncc3)[nH]2)CCCCC1 with its measured pIC50.
output: < 4.70
